Tested on: UACC-257
Test Name: NCI tumour cell line growth inhibition, 48 h
Activity calls are given as the source filed them. Rule as the data show it: active = GI50 up to about 1.1 µM and inactive = higher. Numbered stars: 1 amine (or outer) side, 2 acyl side, 3 side chain; on linkers, the order of the positions; unused ones are H or OH. Bridge positions count the residues as written; N and C are the ends. Square brackets hold non-standard residues; d marks the D form. Peptide text beside a SMILES is read from it. I, II: the chains in the order shown. Actinocin(9to1) = Cc1c2oc3c(C)ccc(C(=O)[*:1])c3nc-2c(C(=O)[*:2])c(N)c1=O; NMeH = CN[CH](Cc1c[nH]cn1)C(=O)O; Sar = CNCC(=O)O
// allowed return values: active, inactive

Check out these entries, answers already filled in.
Cc1cc(N2CCN(C)CC2)n2nc(-c3ccc(Cl)cc3)nc2n1; inactive
O=c1cc(NNc2cccc3ccccc23)[nH]c(=O)[nH]1; inactive
COC(=O)c1cn(CCCCO)nn1; inactive
COC(=O)C1CCc2nnc(-c3cccnc3)n21 (stereo not given); inactive
NCCCNc1ccc2c(c1)[n+]([O-])c1ccccc1[n+]2[O-]; inactive
COc1ccc(N2C(=O)CC(=O)N(NC(=O)C(C)Oc3ccccc3C)C2=S)cc1 (stereo not given); inactive

q: Called result for Cc1c2oc3c(C)ccc(C(=O)NC4C(=O)NC(C(C)C)C(=O)N5CCCC5C(=O)N(C)CC(=O)N(C)C(Cc5cnc[nH]5)C(=O)OC4C)c3nc-2c(C(=O)NC2C(=O)NC(C(C)C)C(=O)N3CCCC3C(=O)N(C)CC(=O)N(C)C(Cc3cnc[nH]3)C(=O)OC2C)c(N)c1=O (stereo not given) (I: TVP[Sar][NMeH] / II: TVP[Sar][NMeH]; ester I:1-I:C, II:1-II:C; linker I:N-II:N via Actinocin(9to1); configuration not given here)
a: inactive

q: Called result for COc1ccc(C(=O)CC(c2ccc(OC)c(OC)c2)c2c(O)oc3ccccc3c2=O)cc1OC (stereo not given)
a: inactive

q: Called result for "CN(C)CCCNc1ccc2nnn3c4ccc(OC(=O)c5ccccc5)cc4c(=O)c1c23"
a: inactive

q: Called result for "O=C(CCn1ccnc1[N+](=O)[O-])NCCCn1ccnc1[N+](=O)[O-]"
a: inactive

q: Called result for "C/C=C/C=C/C=C/C=C/C(=O)O"
a: inactive

q: Called result for CC(CO)(Nc1ccc([N+](=O)[O-])cc1[N+](=O)[O-])C(=O)O (stereo not given)
a: inactive

q: Called result for "O=C1c2c(nc3ccccc3c2-c2ccccc2)CN1Nc1ccccn1"
a: inactive

q: Called result for N#CC1(C#N)NC(c2ccsc2)C(C#N)(C#N)NC1c1ccsc1 (stereo not given)
a: inactive

q: Called result for "COc1ccc(CNc2nc3cc(C(F)(F)F)ccc3nc2C)cc1OC"
a: inactive

q: Called result for Cc1cc(Cl)ccc1NC1=NC(=O)C(CC(=O)Nc2ccc(Cl)cc2Cl)S1 (stereo not given)
a: inactive

q: Called result for "Cc1ccc(/N=C/C=C(\Nc2ccc(C)cc2)c2ccc3ccccc3c2)cc1"
a: active
